- protocolNotes: Stability of the peptide to plasma proteases (3 hrs. incubation in PRP before agonist)
- Format: in vitro ADME, dog
- experimentalParameters: peptide incubated 3 hrs. in PRP prior to addition of agonist
Residues, ends and D or L forms follow the SMILES beside them.
Provide the reported % Activity after 3 hr. in PRP of each item.
One number for each entry, in %.

Previously resolved entries follow.
molecule="CC(=O)N[C@H]1CSSC[C@@H](C(N)=O)NC(=O)[C@H](CO)NC(=O)[C@H](CC(=O)O)NC(=O)CNC(=O)[C@H](CCCNC(=N)N)N(C)C1=O [Example 1] (HELM PEPTIDE1{[ac].C.[meR].G.D.S.C.[am]}$PEPTIDE1,PEPTIDE1,2:R3-7:R3$$$V2.0)" unitslabel=% testvalue=100
molecule="CC(=O)N(C)[C@@H](CCCNC(=N)N)C(=O)NCC(=O)N[C@@H](CC(=O)O)C(=O)N[C@@H](CO)C(N)=O [Example 26, N^α -Ac-N a-MeArg-Gly-Asp-Ser-NH2] (HELM PEPTIDE1{[ac].[meR].G.D.S.[am]}$$$$V2.0)" unitslabel=% testvalue=100
molecule="CC(=O)N(C)[C@@H](CCCNC(=N)N)C(=O)NCC(=O)N[C@@H](CC(=O)O)C(=O)N[C@@H](Cc1ccccc1)C(N)=O [Example 35, N^α -Ac-MeArg-Gly-Asp-Phe-NH2] (HELM PEPTIDE1{[ac].[meR].G.D.F.[am]}$$$$V2.0)" unitslabel=% testvalue=100

List reported % Activity after 3 hr. in PRP for each of these molecules:
1. CC(=O)N[C@@H](CCCNC(=N)N)C(=O)NCC(=O)N[C@@H](CC(=O)O)C(=O)N[C@@H](Cc1ccc2ccccc2c1)C(N)=O [Example 32, N^α -Ac-Arg-Gly-Asp-Nal-NH2] (HELM PEPTIDE1{[ac].R.G.D.[O=C([C@H](Cc1ccc2ccccc2c1)N[*:1])[*:2]].[am]}$$$$V2.0)
2. CC(=O)N[C@@H](CCCN=C(N)N)C(=O)NCC(=O)N[C@@H](CC(=O)O)C(=O)N[C@@H](CO)C(N)=O [Example 27, N^α -Ac-Arg-Gly-Asp-Ser-NH2] (Ac-RGDS-NH2)

Reply text:
1: 100; 2: 0

Inquiry: Looking for the measured % Activity after 3 hr. in PRP of CC(=O)N[C@H]1CSSC2(CCCCC2)C(C(N)=O)NC(=O)[C@H](CC(=O)O)NC(=O)CNC(=O)[C@H](CCCNC(=N)N)NC1=O (stereo partly drawn) [Example 2] (HELM PEPTIDE1{[ac].C.R.G.D.[O=C(C(N[*:1])C1(S[*:3])CCCCC1)[*:2]].[am]}$PEPTIDE1,PEPTIDE1,2:R3-6:R3$$$V2.0) , can you help?
Reply text: 100
